Could you please report measured pEC50 for the items listed next?
Tested on: Hepatitis C virus
assay_method_text: Antiviral activity against Hepatitis C virus genotype 1b Con1 infected in human hepatoma cells assessed as inhibition of viral RNA replication by subgenomic replicon assay
Format: functional, organism-based, Hepacivirus hominis
experimental_parameters: genotype 1b Con 1
One number for each entry, as −log10 of the molar value.

// worked examples, pEC50 included
>>> observed("Cc1nc(NCC2CC2)nc(N[C@@H]2C[C@H]([C@H](C)O)[C@@H](O)[C@H]2O)c1-c1nc2cnccc2s1.Cl")
7.70
>>> observed("Cc1nc(N(C)CC2CC2)nc(N[C@@H]2C[C@H](C(C)(C)O)[C@@H](O)[C@H]2O)c1-c1nc2c(C)nccc2s1")
7.05
>>> observed("Cc1nc(NC2CC2)nc(N[C@@H]2C[C@H](C(C)(C)O)[C@@H](O)[C@H]2O)c1-c1nc2c(C)nccc2s1")
7.30

# batch size: 4; output pEC50 per entry
1. Cc1nc(NCCN2CCOCC2)nc(N[C@@H]2C[C@H](C(C)(C)O)[C@@H](O)[C@H]2O)c1-c1nc2c(C)nccc2s1
2. COCC1(CNc2nc(C)c(-c3nc4c(C)nccc4s3)c(N[C@@H]3C[C@H](C(C)(C)O)[C@@H](O)[C@H]3O)n2)CC1
3. Cc1nc(N[C@H](C)C2CC2)nc(N[C@@H]2C[C@H](C(C)(C)O)[C@@H](O)[C@H]2O)c1-c1nc2c(C)nccc2s1
4. CCOCCNc1nc(C)c(-c2nc3c(C)nccc3s2)c(N[C@@H]2C[C@H](C(O)(COC)COC)[C@@H](O)[C@H]2O)n1

1: 7.70; 2: 7.70; 3: 7.70; 4: 8.52

====

assay_method_text: AUC (0 to 6 hrs) in rat at 10 mg/kg, po
Assay type: ADME, organism-based
Design: time < 6 hr, dose 10 mg/kg, route oral
experimental_parameters: plasma
observation_type: AUC(0-t) at 6 h (µM·h)
Give bare numbers, in µM·h.

Example cases with answers are listed next.
>>> observed("Cc1nc(NCC2CC2)nc(N[C@@H]2C[C@H](C(C)(C)O)[C@@H](O)[C@H]2O)c1-c1nc2cnccc2s1.Cl")
8.5
>>> observed("Cc1nc(NCC(F)(F)F)nc(N[C@@H]2C[C@H](C(C)(C)O)[C@@H](O)[C@H]2O)c1-c1nc2c(C)nccc2s1")
1.8
>>> observed("Cc1nc(NC2CC2)nc(N[C@@H]2C[C@H](C(C)(C)O)[C@@H](O)[C@H]2O)c1-c1nc2c(C)nccc2s1")
58
>>> observed("Cc1nc(N[C@H](C)C2CC2)nc(N[C@@H]2C[C@H](C(C)(C)O)[C@@H](O)[C@H]2O)c1-c1nc2cnccc2s1")
11
>>> observed("Cc1nc(N[C@H](C)c2ccc(OC(F)(F)F)cc2)nc(N[C@@H]2C[C@H](C(C)(C)O)[C@@H](O)[C@H]2O)c1-c1nc2c(C)nccc2s1")
1.2
>>> observed("Cc1nc(NCc2c(F)cc(F)cc2F)nc(N[C@@H]2C[C@H](C(C)(C)O)[C@@H](O)[C@H]2O)c1-c1nc2c(C)nccc2s1")
0.4
>>> observed("Cc1nc(NCCN2CCOCC2)nc(N[C@@H]2C[C@H](C(C)(C)O)[C@@H](O)[C@H]2O)c1-c1nc2c(C)nccc2s1")
0.2
>>> observed("Cc1nc(NCC2CC2)nc(N[C@@H]2C[C@H]([C@H](C)O)[C@@H](O)[C@H]2O)c1-c1nc2cnccc2s1.Cl")
1.3

Quick request: AUC(0-t) at 6 h for each listed item, please.
1. CSCCNc1nc(C)c(-c2nc3c(C)nccc3s2)c(N[C@@H]2C[C@H](C(C)(C)O)[C@@H](O)[C@H]2O)n1
2. Cc1nc(NCC2CC2)nc(N[C@@H]2C[C@H](C3(O)CC3)[C@@H](O)[C@H]2O)c1-c1nc2c(C)nccc2s1

1: 1.6; 2: 1.6

State recorded AUC(0-t) at 6 h for all listed molecules.
1. CCC(O)(CC)[C@H]1C[C@@H](Nc2nc(NCCOC)nc(C)c2-c2nc3c(C)nccc3s2)[C@H](O)[C@@H]1O
2. Cc1nc(NCC2CCCCO2)nc(N[C@@H]2C[C@H](C(C)(C)O)[C@@H](O)[C@H]2O)c1-c1nc2c(C)nccc2s1 (stereo partly specified)
3. CCC(O)(CC)[C@H]1C[C@@H](Nc2nc(NCC3CC3)nc(C)c2-c2nc3c(C)nccc3s2)[C@H](O)[C@@H]1O
4. COCC1(CNc2nc(C)c(-c3nc4c(C)nccc4s3)c(N[C@@H]3C[C@H](C(C)(C)O)[C@@H](O)[C@H]3O)n2)CC1
5. COCCNc1nc(C)c(-c2nc3cnccc3s2)c(N[C@@H]2C[C@H](C(C)(C)O)[C@@H](O)[C@H]2O)n1
6. COCCNc1nc(C)c(-c2nc3c(C)nccc3s2)c(N[C@@H]2C[C@H](C3(O)CC3)[C@@H](O)[C@H]2O)n1

1.4
9.9
10
0.7
1.3
3.9

====

assay_method_text: AUC (0 to 24 hrs) in dog at 3 mg/kg, po
Format: ADME, organism-based, Canis lupus familiaris
Parameters: time < 24 hr, dose 3 mg/kg, route oral
experimental_parameters: plasma
Values of AUC(0-t) at 24 h greater than or equal to 3 µM·h map to met; values below map to not met.

>>> category_label("Cc1nc(N[C@H](C)C2CC2)nc(N[C@@H]2C[C@H](C(C)(C)O)[C@@H](O)[C@H]2O)c1-c1nc2c(C)nccc2s1")
"not met"
>>> category_label("CO[C@H](C)CNc1nc(C)c(-c2nc3c(C)nccc3s2)c(N[C@@H]2C[C@H](C(C)(C)O)[C@@H](O)[C@H]2O)n1")
"met"

Could you tell me if the measured AUC(0-t) at 24 h of COC[C@@H](C)Nc1nc(C)c(-c2nc3c(C)nccc3s2)c(N[C@@H]2C[C@H](C(C)(C)O)[C@@H](O)[C@H]2O)n1 reaches 3 µM·h or more?
met

Reported AUC(0-t) at 24 h reaches at least 3 µM·h for COCCNc1nc(C)c(-c2nc3c(C)nccc3s2)c(N[C@@H]2C[C@H](C(C)(C)O)[C@@H](O)[C@H]2O)n1 ?
not met

Determine whether this compound has AUC(0-t) at 24 h no lower than 3 µM·h: Cc1nc(NCC2CC2)nc(N[C@@H]2C[C@H](C(C)(C)O)[C@@H](O)[C@H]2O)c1-c1nc2c(C)nccc2s1
met

====

Test system: Hepatitis C virus
assay_method_text: Antiviral activity against Hepatitis C virus genotype 1b Con1 infected in human hepatoma cells assessed as inhibition of viral RNA replication by subgenomic replicon assay
Format: functional, organism-based, Hepacivirus hominis
experimental_parameters: genotype 1b Con 1
observation_type: EC50
Form entry: enter the amount, then its unit.

>>> observed("Cc1nc(NCC2CC2)nc(N[C@@H]2C[C@H](C3(O)CC3)[C@@H](O)[C@H]2O)c1-c1nc2c(C)nccc2s1")
"4 nM"
>>> observed("Cc1nc(N[C@H](C)C2CC2)nc(N[C@@H]2C[C@H](C(C)(C)O)[C@@H](O)[C@H]2O)c1-c1nc2cnccc2s1")
"30 nM"
>>> observed("COC[C@@H](C)Nc1nc(C)c(-c2nc3c(C)nccc3s2)c(N[C@@H]2C[C@H](C(C)(C)O)[C@@H](O)[C@H]2O)n1")
"20 nM"
>>> observed("CCC(O)(CC)[C@H]1C[C@@H](Nc2nc(NCCOC)nc(C)c2-c2nc3c(C)nccc3s2)[C@H](O)[C@@H]1O")
"10 nM"
>>> observed("Cc1nc(N)nc(N[C@@H]2C[C@H](C(C)(C)O)[C@@H](O)[C@H]2O)c1-c1nc2c(C)nccc2s1")
"40 nM"
>>> observed("COCCNc1nc(C)c(-c2nc3cnccc3s2)c(N[C@@H]2C[C@H](C(C)(C)O)[C@@H](O)[C@H]2O)n1")
"50 nM"

State the recorded EC50 for every item in the following list.
1. Cc1nc(NCC2CC2)nc(N[C@@H]2C[C@H](C(C)(C)O)[C@@H](O)[C@H]2O)c1-c1nc2cnccc2s1.Cl
2. CSCCNc1nc(C)c(-c2nc3c(C)nccc3s2)c(N[C@@H]2C[C@H](C(C)(C)O)[C@@H](O)[C@H]2O)n1

1. 20 nM
2. 8 nM

====

Could you please report measured CC50 for the items listed next?
assay_method_text: Cytotoxicity against human hepatoma cells assessed as effect on cellular GAPDH RNA level
Type: cell-based

Below: 4 molecules and their reported CC50.
>>> observed("COCCNc1nc(C)c(-c2nc3c(C)nccc3s2)c(N[C@@H]2C[C@H](C(C)(C)O)[C@@H](O)[C@H]2O)n1")
"> 25 µM"
>>> observed("CCC(O)(CC)[C@H]1C[C@@H](Nc2nc(NCC3CC3)nc(C)c2-c2nc3c(C)nccc3s2)[C@H](O)[C@@H]1O")
"> 6 µM"
>>> observed("Cc1nc(NCC2CC2)nc(N[C@@H]2C[C@H]([C@H](C)O)[C@@H](O)[C@H]2O)c1-c1nc2cnccc2s1.Cl")
"18 µM"
>>> observed("COCC1(CNc2nc(C)c(-c3nc4c(C)nccc4s3)c(N[C@@H]3C[C@H](C(C)(C)O)[C@@H](O)[C@H]3O)n2)CC1")
"> 25 µM"

Which measured CC50 value corresponds to Cc1nc(NCCN2CCOCC2)nc(N[C@@H]2C[C@H](C(C)(C)O)[C@@H](O)[C@H]2O)c1-c1nc2c(C)nccc2s1 ?
> 25 µM

All figures here come from ChEMBL document CHEMBL2163315.
